Attribution: PubChem BioAssay (EPA / NIEHS)

# Read-out: Plasminogen activator inhibitor-1 (PAI1), SERPINE1 (gene 5054)
# METHOD NOTES: BSK_hDFCGF_PAI1: BioMAP Diversity Plus: hDFCGF Assay for Plasminogen activator inhibitor-1 (PAI1) Biomarker Activity (AID 2283066)
# EXPERIMENTAL SETUP: primary human foreskin fibroblasts; actives raise or lower the signal
Activity calls are given as the source filed them. Rule for the calls: active = hit-call score of the fitted dose curve at least 0.9, where 1 is the maximum; inactive = score below 0.9.
Outcome codes: YES for active, NO for inactive

INSERT INTO assay_data (smiles_str, assigned_class) VALUES
  ('Oc1cc2ccccc2c2ccccc12', 'YES'),
  ('Cc1cc(C)c(O)c(C)c1', 'NO'),
  ('CCCCCCCCC(=O)O', 'NO'),
  ('O=C(O)Cc1cc(I)c(Oc2cc(I)c(O)c(I)c2)c(I)c1', 'YES'),
  ('COc1ccc([N+](=O)[O-])cc1N', 'NO'),
  ('CCN(CC)CCNc1ccc(CNC=O)c2sc3ccc(OC)cc3c(=O)c12', 'YES'),
  ('CCCOC(=O)c1ccc(O)cc1', 'NO');

====

# Read-out: Forkhead box O3 (FOXO3), FOXO3 (gene 2309)
# METHOD NOTES: LTEA_HepaRG_FOXO3: Life Technologies and Expression Analysis (LTEA) Assay for Forkhead box O3 (FOXO3) using HepaRG (AID 2283459)
# EXPERIMENTAL SETUP: mRNA level, 48 h; actives raise or lower the signal
Calls of active or inactive are those of the source. How the source made its calls: active means hit-call score of the fitted dose curve at least 0.9, where 1 is the maximum; inactive means score below 0.9.
Outcome codes: active, inactive

INSERT INTO measurements (molecule, assigned_class) VALUES
  ('O=C(O)c1ccccc1C(c1ccc(O)cc1)c1ccc(O)cc1', 'inactive'),
  ('Oc1cccc(O)c1', 'inactive'),
  ('CC(C)(C)c1cccc(C(C)(C)C)c1O', 'inactive'),
  ('CC#C[C@]1(O)CC[C@H]2[C@@H]3CCC4=CC(=O)CCC4=C3[C@@H](c3ccc(N(C)C)cc3)C[C@@]21C', 'active'),
  ('CC(C)CCCCCCOC(=O)CCCCC(=O)OCCCCCCC(C)C', 'inactive'),
  ('OC1CCC(C2CCCCC2)CC1 (configuration not stated)', 'inactive'),
  ('O=c1c(-c2ccc(O)cc2)coc2cc(O)ccc12', 'inactive'),
  ('Cc1oc(-c2ccccc2)nc1CCOc1ccc(C[C@H](Nc2ccccc2C(=O)c2ccccc2)C(=O)O)cc1', 'active'),
  ('O=C(OCCOCCOC(=O)c1ccccc1)c1ccccc1', 'inactive'),
  ('CCc1ccc(CCOc2ccc(CC3SC(=O)NC3=O)cc2)nc1 (configuration not stated)', 'inactive'),
  ('CCCCC(CC)COC(=O)CCCCC(=O)OCC(CC)CCCC (configuration not stated)', 'inactive'),
  ('CCN(CC)CCNc1ccc(CNC=O)c2sc3ccc(OC)cc3c(=O)c12', 'active');

====

# METHOD NOTES: CCTE_Padilla_ZF_144hpf_TERATOSCORE: (Legacy) CCTE's 144 Hour Post-fertilization zebrafish Assay Teratoscore, Padilla Lab (AID 2283679);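 for AC50: zebrafish embryos with chorions exposed by immersion from 6-8 hpf to 5 dpf with daily renewal; teratogenicity score from eye scoring of death hatching and malformations at 144 hpf; higher score means more developmental defects relative to DMSO baseline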
Calls of active or inactive are those of the source. How the source made its calls: active means hit-call score of the fitted dose curve at least 0.9, where 1 is the maximum; inactive means score below 0.9.
PROPERTY: AC50

INSERT INTO results (compound, property, value_observed) VALUES
  ('Cc1cc(CCN2CCN(c3nsc4ccccc34)CC2)cc2c1NC(=O)CC2(C)C', 'AC50', '1.64 µM (active)'),
  ('O=C(O)c1ccccc1C(c1ccc(O)cc1)c1ccc(O)cc1', 'AC50', 'inactive'),
  ('CCCCCCCCCCCCc1ccccc1S(=O)(=O)O', 'AC50', '3.26 µM (active)'),
  ('O=c1c(-c2ccc(O)cc2)coc2cc(O)ccc12', 'AC50', 'inactive'),
  ('O=C(O)Cc1cc(I)c(Oc2cc(I)c(O)c(I)c2)c(I)c1', 'AC50', '0.0352 µM (active)'),
  ('CC#C[C@]1(O)CC[C@H]2[C@@H]3CCC4=CC(=O)CCC4=C3[C@@H](c3ccc(N(C)C)cc3)C[C@@]21C', 'AC50', '14.5 µM (active)'),
  ('CCCOc1sc(C(=O)N2CCC(c3cc(CN)ccc3F)CC2)c(C)c1Br', 'AC50', '57.5 µM (active)'),
  ('C=C(C)C(=O)OCCC(F)(F)C(F)(F)C(F)(F)C(F)(F)C(F)(F)C(F)(F)F', 'AC50', 'inactive'),
  ('OC1CCC(C2CCCCC2)CC1 (stereo unspecified)', 'AC50', '87.6 µM (active)'),
  ('CCN(CC)CCNc1ccc(CNC=O)c2sc3ccc(OC)cc3c(=O)c12', 'AC50', '57.8 µM (active)'),
  ('CCCCC(CC)COC(=O)CCCCC(=O)OCC(CC)CCCC (stereo unspecified)', 'AC50', 'inactive');
